System: CLK4
Parameters: species or system human, MV4-11 + K-562 + COLO205 + SK-N-BE2 + OVCAR-8
Details: read-out: apparent Kd; compound concentrations:100 nM and 1000 nM (sheet 'Samples'); n = 1
TEST READOUT: potency estimated from few doses (nM)
API: value field is a number in nM; no unit string.

Look up and report measured potency estimated from few doses for this entry: CN1C[C@@H]2Cn3c(c(C4=C(c5cn(C)c6ccccc56)C(=O)NC4=O)c4ccccc43)C[C@H]2C1.Cl [RO0320234-001]
500

###

Test system: NUAK1
Parameters: species or system human, MV4-11 + K-562 + COLO205 + SK-N-BE2 + OVCAR-8
Details: read-out: apparent Kd; compound concentrations:100 nM and 1000 nM (sheet 'Samples'); n = 1
TEST READOUT: potency estimated from few doses
Enter the number, and then the unit.

Given N#Cc1cccc(Nc2nccc(-c3cnn4ncccc34)n2)c1 [GW778894X] , respond with its potency estimated from few doses.
792 nM

Input C[C@@H](c1ccccc1)[C@@H](C(=O)Nc1ccc(I)cc1F)N1C(=O)N[C@H](c2ccc(OC[C@H](O)CO)cc2)C1=O , output reported potency estimated from few doses.
1920 nM

Output potency estimated from few doses of O=C1NC(=O)C(N2CCc3ccccc32)=C1c1ccccc1Cl
287 nM

Continuing:
Check the records and state potency estimated from few doses for O=C(Nc1n[nH]c2nc(-c3ccccc3O)ccc12)C1CC1
1850 nM

For the compound CC(C)Oc1ccc2c(-c3ccnc(Nc4ccc(N5CCN(C)CC5)cc4)n3)cnn2n1 [GW696155X] , give its measured potency estimated from few doses value.
1030 nM
